For reference, the following IC50 results for Serine/threonine-protein kinase mTOR (Homo sapiens) were taken from various sources.
value_type: IC50

[
  {
    "mol_smiles": "COc1cc(-c2cccc(NS(=O)(=O)CCCF)c2F)cc2c(N3CCOC[C@H]3C)nc(-c3cnc(N)nc3)nc12",
    "study_system": "Serine/threonine-protein kinase mTOR (Homo sapiens)",
    "value_type": "IC50",
    "observed": "1 to 100 nM"
  },
  {
    "mol_smiles": "C=CC(=O)Nc1cc(-n2c(=O)ccc3cnc4ccc(-c5ccc6c(c5)OCCO6)cc4c32)ccc1C",
    "study_system": "Serine/threonine-protein kinase mTOR (Homo sapiens)",
    "value_type": "IC50",
    "observed": "642 nM"
  },
  {
    "mol_smiles": "CCN(CC)C(=O)Cn1cc(-n2c(=O)n(C)c3cnc4ccc(-c5ccc(C)nc5)cc4c32)c(C)n1",
    "study_system": "Serine/threonine-protein kinase mTOR (Homo sapiens)",
    "value_type": "IC50",
    "observed": "21 nM"
  },
  {
    "mol_smiles": "Nc1ncc(-c2nc(N3CCOCC3)c3ncc(-c4cccc(NC(=O)CO)c4)cc3n2)cn1",
    "study_system": "Serine/threonine-protein kinase mTOR (Homo sapiens)",
    "value_type": "IC50",
    "observed": "< 50 nM"
  },
  {
    "mol_smiles": "CN(C)C(=O)c1ccc(NC(=O)Nc2ccc(-c3nc(N4CCOCC4)c4ccc(-c5cccnc5)cc4n3)cc2)c(F)c1",
    "study_system": "Serine/threonine-protein kinase mTOR (Homo sapiens)",
    "value_type": "IC50",
    "observed": "< 50 nM"
  },
  {
    "mol_smiles": "NC(=O)c1nc(-c2cccc(O)c2)nc2c1[nH]c(=O)n2-c1c(F)cccc1F",
    "study_system": "Serine/threonine-protein kinase mTOR (Homo sapiens)",
    "value_type": "IC50",
    "observed": "100 to 5000 nM"
  },
  {
    "mol_smiles": "CN(C)C(=O)c1ccc(NC(=O)Nc2ccc(-c3nc(N4CCOCC4)c4ccccc4n3)cc2)cc1",
    "study_system": "Serine/threonine-protein kinase mTOR (Homo sapiens)",
    "value_type": "IC50",
    "observed": "< 50 nM"
  },
  {
    "mol_smiles": "CN(C)C(=O)c1ccc(NC(=O)Nc2ccc(-c3nc(N4CCOCC4)c4ncc(-c5cccc(S(C)(=O)=O)c5)cc4n3)cc2)cc1",
    "study_system": "Serine/threonine-protein kinase mTOR (Homo sapiens)",
    "value_type": "IC50",
    "observed": "< 50 nM"
  },
  {
    "mol_smiles": "CC(C)(Cc1ccccc1)Nc1nc(N2CCOCC2)nc(-n2c(C(F)F)nc3ccccc32)n1",
    "study_system": "Serine/threonine-protein kinase mTOR (Homo sapiens)",
    "value_type": "IC50",
    "observed": "> 500 nM"
  },
  {
    "mol_smiles": "Cc1nc2[nH]c(=O)n(C[C@H]3CC[C@@H](O)CO3)c2cc1-c1cnc2[nH]ccc2c1",
    "study_system": "Serine/threonine-protein kinase mTOR (Homo sapiens)",
    "value_type": "IC50",
    "observed": "< 50 nM"
  },
  {
    "mol_smiles": "Nc1ncc(-c2nc(N3CCOCC3)c3ncc(CN4CCNCC4)cc3n2)cn1",
    "study_system": "Serine/threonine-protein kinase mTOR (Homo sapiens)",
    "value_type": "IC50",
    "observed": "201 to 10000 nM"
  },
  {
    "mol_smiles": "CC(C)Cn1c(N2CCN(C(=O)[C@H](C)O)[C@H](C)C2)nc2c(N3CCOCC3)nc(-c3cnc(N)nc3)nc21",
    "study_system": "Serine/threonine-protein kinase mTOR (Homo sapiens)",
    "value_type": "IC50",
    "observed": "10 to 30 nM"
  },
  {
    "mol_smiles": "COc1ncc(-c2ccc3ncc4nnc(C)n4c3c2)cc1NS(=O)(=O)c1ccccc1",
    "study_system": "Serine/threonine-protein kinase mTOR (Homo sapiens)",
    "value_type": "IC50",
    "observed": "< 100 nM"
  },
  {
    "mol_smiles": "Cc1ccc(-c2ccc3c(N4CCOCC4)nc(-c4ccc(NC(=O)Nc5ccc(C(=O)N(C)C)cc5F)cc4)nc3c2)o1",
    "study_system": "Serine/threonine-protein kinase mTOR (Homo sapiens)",
    "value_type": "IC50",
    "observed": "201 to 10000 nM"
  },
  {
    "mol_smiles": "CCOc1cc(-c2cccc(NS(=O)(=O)CCCF)c2F)cc2c(N3CCOCC3)nc(-c3cnc(N)nc3)nc12",
    "study_system": "Serine/threonine-protein kinase mTOR (Homo sapiens)",
    "value_type": "IC50",
    "observed": "100 to 1000 nM"
  },
  {
    "mol_smiles": "Nc1ncc(-c2ccc3ncc4nnn(Cc5ccc(F)cc5)c4c3c2)cn1",
    "study_system": "Serine/threonine-protein kinase mTOR (Homo sapiens)",
    "value_type": "IC50",
    "observed": "< 100 nM"
  },
  {
    "mol_smiles": "O=c1[nH]c2ncc(-c3cnc4[nH]ccc4c3)cc2n1CC1CCC(F)(F)CC1",
    "study_system": "Serine/threonine-protein kinase mTOR (Homo sapiens)",
    "value_type": "IC50",
    "observed": "< 50 nM"
  },
  {
    "mol_smiles": "CC(C)Cn1c(N2CCN(C(=O)[C@H](C)O)[C@@H](C)C2)nc2c(N3CCOCC3)nc(-c3cnc(N)nc3)nc21",
    "study_system": "Serine/threonine-protein kinase mTOR (Homo sapiens)",
    "value_type": "IC50",
    "observed": "10 to 30 nM"
  },
  {
    "mol_smiles": "Nc1ncc(-c2nc(N3CCOCC3)c3ncc(-c4cccc(N5CCN(CCO)CC5)c4)cc3n2)cn1",
    "study_system": "Serine/threonine-protein kinase mTOR (Homo sapiens)",
    "value_type": "IC50",
    "observed": "< 50 nM"
  },
  {
    "mol_smiles": "CCn1cc(-n2c(=O)n(C)c3cnc4ccc(-c5cnc(COC)c(OC(C)C)c5)cc4c32)c(C)n1",
    "study_system": "Serine/threonine-protein kinase mTOR (Homo sapiens)",
    "value_type": "IC50",
    "observed": "34 nM"
  },
  {
    "mol_smiles": "CN(C)C(=O)c1ccc(NC(=O)Nc2ccc(-c3nc(N4CCOCC4)c4ccc(-c5ccccn5)cc4n3)cc2)cc1",
    "study_system": "Serine/threonine-protein kinase mTOR (Homo sapiens)",
    "value_type": "IC50",
    "observed": "< 50 nM"
  },
  {
    "mol_smiles": "Cc1nn(C)cc1-n1c(=S)n(C)c2cnc3ccc(-c4cccnc4)cc3c21",
    "study_system": "Serine/threonine-protein kinase mTOR (Homo sapiens)",
    "value_type": "IC50",
    "observed": "69 nM"
  },
  {
    "mol_smiles": "Oc1cccc(-c2nc(N3CCOCC3)nc3c2ncn3CCN2CCCC2)c1",
    "study_system": "Serine/threonine-protein kinase mTOR (Homo sapiens)",
    "value_type": "IC50",
    "observed": "1000 to 5000 nM"
  },
  {
    "mol_smiles": "COCCn1c(=O)n(C)c2ncc(-c3ccc4ncc5c(c4c3)n(-c3cn(C)nc3C)c(=O)n5C)cc21",
    "study_system": "Serine/threonine-protein kinase mTOR (Homo sapiens)",
    "value_type": "IC50",
    "observed": "639 nM"
  },
  {
    "mol_smiles": "COCCN(C)C(=O)Cn1cc(-n2c(=O)n(C)c3cnc4ccc(-c5ccccc5)cc4c32)c(C)n1",
    "study_system": "Serine/threonine-protein kinase mTOR (Homo sapiens)",
    "value_type": "IC50",
    "observed": "324 nM"
  },
  {
    "mol_smiles": "Cc1nn(C)cc1-n1c(=O)n(C)c2cnc3ccc(-c4ccc(N(C)C)nc4)cc3c21",
    "study_system": "Serine/threonine-protein kinase mTOR (Homo sapiens)",
    "value_type": "IC50",
    "observed": "22 nM"
  },
  {
    "mol_smiles": "N#CC1(C(=O)Nc2ccc(F)c(-c3cnc4c(N5CCOCC5)nc(-c5cnc(N)nc5)nc4c3)c2)CC1",
    "study_system": "Serine/threonine-protein kinase mTOR (Homo sapiens)",
    "value_type": "IC50",
    "observed": "50 to 200 nM"
  },
  {
    "mol_smiles": "C[C@H]1COCCN1c1nc(-c2ccc(NC(=O)NC3CC3)cc2)nc2c1CSCC2",
    "study_system": "Serine/threonine-protein kinase mTOR (Homo sapiens)",
    "value_type": "IC50",
    "observed": "< 100 nM"
  },
  {
    "mol_smiles": "COc1ncccc1-c1ccc2c(N3CCOCC3)nc(-c3ccc(NC(=O)Nc4ccc(C(=O)N(C)C)cc4)cc3F)nc2c1",
    "study_system": "Serine/threonine-protein kinase mTOR (Homo sapiens)",
    "value_type": "IC50",
    "observed": "50 to 200 nM"
  },
  {
    "mol_smiles": "CN(C)C(=O)c1ccc(NC(=O)Nc2ccc(-c3nc(N4CCOCC4)c4ccc(-c5ccc(CO)o5)cc4n3)cc2)c(F)c1",
    "study_system": "Serine/threonine-protein kinase mTOR (Homo sapiens)",
    "value_type": "IC50",
    "observed": "50 to 200 nM"
  }
]
